Value source: patent EP3212201B1

Molecular target: GSK3B (GSK3 beta) (Homo sapiens, UniProt P49841)
Sequence (P49841 whole entry, species assumed): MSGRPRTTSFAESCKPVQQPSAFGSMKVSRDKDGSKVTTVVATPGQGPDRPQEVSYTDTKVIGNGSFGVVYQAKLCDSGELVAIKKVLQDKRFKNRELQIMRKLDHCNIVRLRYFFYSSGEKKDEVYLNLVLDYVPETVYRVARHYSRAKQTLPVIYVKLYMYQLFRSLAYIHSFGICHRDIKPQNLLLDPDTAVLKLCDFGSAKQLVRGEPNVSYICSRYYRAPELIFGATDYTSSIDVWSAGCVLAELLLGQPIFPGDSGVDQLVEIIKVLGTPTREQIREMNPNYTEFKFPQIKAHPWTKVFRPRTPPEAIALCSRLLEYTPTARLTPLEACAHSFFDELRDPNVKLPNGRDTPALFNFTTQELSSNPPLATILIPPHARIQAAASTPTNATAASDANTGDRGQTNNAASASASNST
Test: FRET-based coupled-enzyme protein kinase inhibition assay
Format: biochemical
Conditions: compound at 10 µM, 1% DMSO
measured-quantity: inhibition at 10 µM (%)

molecule	units-label	inhibition at 10 µM
CN1CCN(CCNC(=O)OC[C@H]2O[C@@H](n3cnc4c(N)ncnc43)[C@H](O)[C@@H]2O)CC1	%	5

I: CN(C)CCNC(=O)OC[C@H]1O[C@@H](n2cnc3c(N)ncnc32)[C@H](O)[C@@H]1O
II: Nc1ncnc2c1ncn2[C@@H]1O[C@H](COC(=O)NCCN2CCCC2=O)[C@@H](O)[C@H]1O
Please compare: I and II . Report which one has the smaller inhibition at 10 µM value. Reply briefly: the label of your chosen item. I

* * *

Molecular target: UniProt:P05771
Sequence (P05771 whole entry, species assumed): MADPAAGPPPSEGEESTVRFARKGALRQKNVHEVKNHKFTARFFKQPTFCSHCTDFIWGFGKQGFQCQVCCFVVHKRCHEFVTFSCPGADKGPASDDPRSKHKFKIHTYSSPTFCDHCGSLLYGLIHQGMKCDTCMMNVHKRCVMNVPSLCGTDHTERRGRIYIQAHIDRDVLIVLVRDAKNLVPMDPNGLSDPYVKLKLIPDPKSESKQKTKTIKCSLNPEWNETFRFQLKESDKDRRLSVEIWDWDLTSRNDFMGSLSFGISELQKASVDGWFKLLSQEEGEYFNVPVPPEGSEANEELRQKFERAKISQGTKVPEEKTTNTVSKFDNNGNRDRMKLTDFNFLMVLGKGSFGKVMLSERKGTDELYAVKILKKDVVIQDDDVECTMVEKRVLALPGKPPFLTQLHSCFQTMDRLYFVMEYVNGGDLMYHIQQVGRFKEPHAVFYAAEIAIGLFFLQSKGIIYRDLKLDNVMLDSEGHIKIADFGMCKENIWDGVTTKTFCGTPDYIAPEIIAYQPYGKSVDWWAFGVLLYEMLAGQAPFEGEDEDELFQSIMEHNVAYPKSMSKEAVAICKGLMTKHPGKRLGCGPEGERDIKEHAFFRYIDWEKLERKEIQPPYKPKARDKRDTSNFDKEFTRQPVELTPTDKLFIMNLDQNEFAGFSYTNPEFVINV
Test: FRET-based coupled-enzyme protein kinase inhibition assay
Format: biochemical
Settings: compound at 10 µM, 1% DMSO
measured-quantity: inhibition at 10 µM (%)

Use the examples below as a reference point.
compound	units-label	inhibition at 10 µM
N#CCCN1CCN(C(=O)OC[C@H]2O[C@@H](n3cnc4c(N)ncnc43)[C@H](O)[C@@H]2O)CC1 [Compound C70]	%	-5
CS(=O)(=O)N1CC2(CCN(C(=O)OC[C@H]3O[C@@H](n4cnc5c(N)ncnc54)[C@H](O)[C@@H]3O)CC2)c2ccccc21 [Compound C98]	%	-1

a: C[C@@H](NC(=O)OC[C@H]1O[C@@H](n2cnc3c(N)ncnc32)[C@H](O)[C@@H]1O)c1ccc(Cl)cc1 [Compound C4]
b: Nc1ncnc2c1ncn2[C@@H]1O[C@H](COC(=O)N2CCN(Cc3ccccc3)CC2CO)[C@@H](O)[C@H]1O (stereo partly shown) [Compound C13]
Form field 'greater inhibition at 10 µM' accepts a or b ; which applies? Reply briefly: the label of your chosen item. b
(b: 7%, a: -1%)

* * *

Molecular target: MARK2 (Homo sapiens, UniProt Q7KZI7)
Sequence (Q7KZI7 whole entry, species assumed): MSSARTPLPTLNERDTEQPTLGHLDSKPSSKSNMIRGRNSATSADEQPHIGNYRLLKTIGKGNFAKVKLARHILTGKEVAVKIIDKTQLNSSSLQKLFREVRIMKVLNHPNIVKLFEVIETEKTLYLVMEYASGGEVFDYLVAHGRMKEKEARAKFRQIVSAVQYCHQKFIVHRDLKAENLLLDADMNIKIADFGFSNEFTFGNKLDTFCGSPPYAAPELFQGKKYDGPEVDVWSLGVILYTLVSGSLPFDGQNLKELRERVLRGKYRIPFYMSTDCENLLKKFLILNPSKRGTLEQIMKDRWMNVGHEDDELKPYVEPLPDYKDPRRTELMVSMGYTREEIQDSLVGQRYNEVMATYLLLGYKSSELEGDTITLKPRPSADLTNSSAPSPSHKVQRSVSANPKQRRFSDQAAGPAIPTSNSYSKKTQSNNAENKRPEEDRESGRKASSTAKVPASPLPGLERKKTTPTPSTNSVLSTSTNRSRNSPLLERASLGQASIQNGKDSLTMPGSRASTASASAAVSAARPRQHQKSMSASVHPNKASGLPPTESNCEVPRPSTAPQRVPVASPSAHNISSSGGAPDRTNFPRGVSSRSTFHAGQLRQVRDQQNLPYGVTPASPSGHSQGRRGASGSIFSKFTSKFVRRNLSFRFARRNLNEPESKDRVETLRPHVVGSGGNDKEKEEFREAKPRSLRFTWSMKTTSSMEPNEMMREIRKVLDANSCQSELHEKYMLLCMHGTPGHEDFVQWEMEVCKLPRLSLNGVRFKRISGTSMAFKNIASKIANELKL
Assay: FRET-based coupled-enzyme protein kinase inhibition assay
Assay type: biochemical
Conditions: compound at 10 µM, 1% DMSO
measured-quantity: inhibition at 10 µM (%)

Use the examples below as a reference point.
molecule	units-label	inhibition at 10 µM
CN(C)CCNC(=O)OC[C@H]1O[C@@H](n2cnc3c(N)ncnc32)[C@H](O)[C@@H]1O [Compound C85]	%	4
Nc1ncnc2c1ncn2[C@@H]1O[C@H](COC(=O)N2CCC[C@H]2CO)[C@@H](O)[C@H]1O [Compound C9]	%	6

A: CS(=O)(=O)N1CC2(CCN(C(=O)OC[C@H]3O[C@@H](n4cnc5c(N)ncnc54)[C@H](O)[C@@H]3O)CC2)c2ccccc21 [Compound C98]
B: Nc1ncnc2c1ncn2[C@@H]1O[C@H](COC(=O)N2CCC(Cc3ccc(F)cc3)C2)[C@@H](O)[C@H]1O (stereo partly shown) [Compound C66]
Please compare: A and B . Report which one has the smaller inhibition at 10 µM value. Reply briefly: the label of your chosen item. B

* * *

Molecular target: CSNK1G2 (CK1 gamma 2) (Homo sapiens, UniProt P78368)
Sequence (P78368 whole entry, species assumed): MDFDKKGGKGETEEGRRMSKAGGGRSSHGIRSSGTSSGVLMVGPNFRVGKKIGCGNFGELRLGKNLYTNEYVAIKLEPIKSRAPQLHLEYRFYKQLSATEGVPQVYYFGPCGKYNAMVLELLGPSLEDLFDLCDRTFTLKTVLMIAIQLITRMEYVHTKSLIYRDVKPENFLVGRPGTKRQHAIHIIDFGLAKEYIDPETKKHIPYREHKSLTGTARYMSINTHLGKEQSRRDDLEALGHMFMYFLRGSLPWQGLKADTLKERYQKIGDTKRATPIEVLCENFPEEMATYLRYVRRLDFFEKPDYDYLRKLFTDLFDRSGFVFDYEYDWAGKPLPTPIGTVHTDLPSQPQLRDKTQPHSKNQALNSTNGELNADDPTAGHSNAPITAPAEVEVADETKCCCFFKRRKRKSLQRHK
Test: FRET-based coupled-enzyme protein kinase inhibition assay
Type: biochemical
Conditions: compound at 10 µM, 1% DMSO
measured-quantity: inhibition at 10 µM (%)

Use the examples below as a reference point.
molecule	units-label	assay-value
Nc1ncnc2c1ncn2[C@@H]1O[C@H](COC(=O)NCCN2CCCC2=O)[C@@H](O)[C@H]1O [Compound C22]	%	2
Nc1ncnc2c1ncn2[C@@H]1O[C@H](COC(=O)N2CCN(Cc3ccccc3)CC2CO)[C@@H](O)[C@H]1O (stereo partly shown) [Compound C13]	%	11

A: Nc1ncnc2c1ncn2[C@@H]1O[C@H](COC(=O)N2CCC(Cc3ccc(F)cc3)C2)[C@@H](O)[C@H]1O (stereo partly shown) [Compound C66]
B: CS(=O)(=O)N1CC2(CCN(C(=O)OC[C@H]3O[C@@H](n4cnc5c(N)ncnc54)[C@H](O)[C@@H]3O)CC2)c2ccccc21 [Compound C98]
C: Nc1ncnc2c1ncn2[C@@H]1O[C@H](COC(=O)NCCCc2nc3ccccc3[nH]2)[C@@H](O)[C@H]1O [Compound C1]
D: Nc1ncnc2c1ncn2[C@@H]1O[C@H](COC(=O)N2CCN(CCc3ccccc3)CC2)[C@@H](O)[C@H]1O [Compound C26]
E: CC(C)N1CCC(NC(=O)OC[C@H]2O[C@@H](n3cnc4c(N)ncnc43)[C@H](O)[C@@H]2O)CC1 [Compound C19]
Order the records, beginning with the lowest inhibition at 10 µM and ending with the highest. Could you list the labels in the order requested? C, D, E, A, B

* * *

Biological target: INSR (Homo sapiens)
Sequence (P06213 28-1382, species assumed): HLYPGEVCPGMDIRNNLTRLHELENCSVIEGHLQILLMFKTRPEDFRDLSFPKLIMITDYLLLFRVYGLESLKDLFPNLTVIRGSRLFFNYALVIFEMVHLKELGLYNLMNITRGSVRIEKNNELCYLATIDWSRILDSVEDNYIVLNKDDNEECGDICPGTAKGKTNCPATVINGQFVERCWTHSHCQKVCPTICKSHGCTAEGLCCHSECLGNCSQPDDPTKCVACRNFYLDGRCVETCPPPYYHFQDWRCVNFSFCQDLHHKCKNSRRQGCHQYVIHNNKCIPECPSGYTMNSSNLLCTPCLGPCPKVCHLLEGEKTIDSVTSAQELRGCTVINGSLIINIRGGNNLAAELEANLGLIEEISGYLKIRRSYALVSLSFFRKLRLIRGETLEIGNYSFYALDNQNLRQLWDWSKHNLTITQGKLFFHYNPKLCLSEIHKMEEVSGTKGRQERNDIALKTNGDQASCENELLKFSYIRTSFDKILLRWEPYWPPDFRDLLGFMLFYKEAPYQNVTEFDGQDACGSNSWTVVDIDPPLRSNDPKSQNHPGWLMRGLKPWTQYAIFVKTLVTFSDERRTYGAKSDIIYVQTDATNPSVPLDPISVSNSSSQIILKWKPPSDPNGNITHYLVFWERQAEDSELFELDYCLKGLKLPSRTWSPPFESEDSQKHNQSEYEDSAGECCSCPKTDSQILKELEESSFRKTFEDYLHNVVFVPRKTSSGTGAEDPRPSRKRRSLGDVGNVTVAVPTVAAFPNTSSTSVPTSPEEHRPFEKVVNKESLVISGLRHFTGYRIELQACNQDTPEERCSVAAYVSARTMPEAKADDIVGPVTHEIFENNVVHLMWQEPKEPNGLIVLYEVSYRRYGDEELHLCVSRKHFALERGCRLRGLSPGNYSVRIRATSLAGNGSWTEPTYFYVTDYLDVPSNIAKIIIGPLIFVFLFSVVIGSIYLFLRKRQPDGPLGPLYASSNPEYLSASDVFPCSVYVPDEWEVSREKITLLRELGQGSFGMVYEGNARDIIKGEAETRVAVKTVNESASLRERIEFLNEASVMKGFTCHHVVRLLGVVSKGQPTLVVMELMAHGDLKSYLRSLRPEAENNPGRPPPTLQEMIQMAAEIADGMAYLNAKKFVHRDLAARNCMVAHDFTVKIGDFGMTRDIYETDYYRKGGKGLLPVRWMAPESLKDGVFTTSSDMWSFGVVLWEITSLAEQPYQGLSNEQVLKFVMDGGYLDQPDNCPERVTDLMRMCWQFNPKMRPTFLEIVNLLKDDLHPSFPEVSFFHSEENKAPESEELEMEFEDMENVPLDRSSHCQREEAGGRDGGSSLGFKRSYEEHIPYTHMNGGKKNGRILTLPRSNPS
Test: FRET-based coupled-enzyme protein kinase inhibition assay
Assay type: biochemical
Settings: compound at 10 µM, 1% DMSO
measured-quantity: inhibition at 10 µM (%)

molecule	units-label	inhibition at 10 µM
Nc1ncnc2c1ncn2[C@@H]1O[C@H](COC(=O)N2CCC[C@H]2CO)[C@@H](O)[C@H]1O [Compound C9]	%	4
Nc1ncnc2c1ncn2[C@@H]1O[C@H](COC(=O)NCCN2CCCC2=O)[C@@H](O)[C@H]1O [Compound C22]	%	-5

I: Nc1ncnc2c1ncn2[C@@H]1O[C@H](COC(=O)N2CCN(Cc3ccccc3)CC2CO)[C@@H](O)[C@H]1O (stereo partly shown) [Compound C13]
II: N#CCCN1CCN(C(=O)OC[C@H]2O[C@@H](n3cnc4c(N)ncnc43)[C@H](O)[C@@H]2O)CC1 [Compound C70]
III: Nc1ncnc2c1ncn2[C@@H]1O[C@H](COC(=O)N2CCN(C(=O)N3CCOCC3)CC2)[C@@H](O)[C@H]1O [Compound C89]
IV: Nc1ncnc2c1ncn2[C@@H]1O[C@H](COC(=O)N2CCC(Cc3ccc(F)cc3)C2)[C@@H](O)[C@H]1O (stereo partly shown) [Compound C66]
V: Nc1ncnc2c1ncn2[C@@H]1O[C@H](COC(=O)N2CCN(CCc3ccccc3)CC2)[C@@H](O)[C@H]1O [Compound C26]
Order the items by recorded inhibition at 10 µM; the first position goes to the largest value. Could you list the labels in the order requested? V, III, II, I, IV

* * *

Molecular target: CSNK2A1 (CK2 alpha 1) (Homo sapiens, UniProt P68400)
Sequence (P68400 whole entry, species assumed): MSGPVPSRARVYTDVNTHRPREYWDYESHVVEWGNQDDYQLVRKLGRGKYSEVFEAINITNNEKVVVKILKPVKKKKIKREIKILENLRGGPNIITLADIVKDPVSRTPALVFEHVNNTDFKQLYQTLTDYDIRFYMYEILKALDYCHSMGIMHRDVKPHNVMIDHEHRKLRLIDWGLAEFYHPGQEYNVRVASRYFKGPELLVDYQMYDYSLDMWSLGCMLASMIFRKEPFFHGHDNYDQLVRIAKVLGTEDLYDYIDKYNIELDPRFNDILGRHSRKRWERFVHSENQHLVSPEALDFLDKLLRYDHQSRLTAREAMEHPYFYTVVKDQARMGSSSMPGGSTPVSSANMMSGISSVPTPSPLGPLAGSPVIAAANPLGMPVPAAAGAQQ
Assay: FRET-based coupled-enzyme protein kinase inhibition assay
Type: biochemical
Conditions: compound at 10 µM, 1% DMSO
measured-quantity: inhibition at 10 µM (%)

Use the examples below as a reference point.
compound	units-label	inhibition at 10 µM
Nc1ncnc2c1ncn2[C@@H]1O[C@H](COC(=O)NCCN2CCCC2=O)[C@@H](O)[C@H]1O	%	2
Nc1ncnc2c1ncn2[C@@H]1O[C@H](COC(=O)N[C@@H]2CCN(Cc3ccccc3)C2)[C@@H](O)[C@H]1O	%	2
Nc1ncnc2c1ncn2[C@@H]1O[C@H](COC(=O)N2CCS(=O)(=O)CC2)[C@@H](O)[C@H]1O	%	5
CC(C)N1CCC(NC(=O)OC[C@H]2O[C@@H](n3cnc4c(N)ncnc43)[C@H](O)[C@@H]2O)CC1	%	5
Nc1ncnc2c1ncn2[C@@H]1O[C@H](COC(=O)N2CCN(C(=O)N3CCOCC3)CC2)[C@@H](O)[C@H]1O	%	8

A: N#CCCN1CCN(C(=O)OC[C@H]2O[C@@H](n3cnc4c(N)ncnc43)[C@H](O)[C@@H]2O)CC1
B: C[C@@H](NC(=O)OC[C@H]1O[C@@H](n2cnc3c(N)ncnc32)[C@H](O)[C@@H]1O)c1ccc(Cl)cc1
Form field 'greater inhibition at 10 µM' accepts A or B ; which applies? Reply briefly: the label of your chosen item. B

A: CN(C)CCNC(=O)OC[C@H]1O[C@@H](n2cnc3c(N)ncnc32)[C@H](O)[C@@H]1O
B: Nc1ncnc2c1ncn2[C@@H]1O[C@H](COC(=O)N2CCC(Cc3ccc(F)cc3)C2)[C@@H](O)[C@H]1O (stereo partly shown)
Form field 'greater inhibition at 10 µM' accepts A or B ; which applies? Reply briefly: the label of your chosen item. A
(A: 7%, B: -5%)

a: Nc1ncnc2c1ncn2[C@@H]1O[C@H](COC(=O)N2CCN(CCc3ccccc3)CC2)[C@@H](O)[C@H]1O
b: Nc1ncnc2c1ncn2[C@@H]1O[C@H](COC(=O)NCCCc2nc3ccccc3[nH]2)[C@@H](O)[C@H]1O
Please compare: a and b . Report which one has the smaller inhibition at 10 µM value. Reply briefly: the label of your chosen item. b
(b: -5%, a: 3%)

1: Nc1ncnc2c1ncn2[C@@H]1O[C@H](COC(=O)N2CCN(Cc3ccccc3)CC2CO)[C@@H](O)[C@H]1O (stereo partly shown)
2: Nc1ncnc2c1ncn2[C@@H]1O[C@H](COC(=O)NC[C@H](O)CO)[C@@H](O)[C@H]1O
3: CS(=O)(=O)N1CC2(CCN(C(=O)OC[C@H]3O[C@@H](n4cnc5c(N)ncnc54)[C@H](O)[C@@H]3O)CC2)c2ccccc21
Order the records, beginning with the lowest inhibition at 10 µM and ending with the highest. Could you list the labels in the order requested? 3, 1, 2
